TEST TARGET: cyclooxygenase derived from rat basophilic leukemia (RBL-1) cells (Rattus norvegicus)
Construct: Single cell suspensions of RBL-1 cells are homogenized to obtain the microsomal fraction containing lipoxygenase and cyclooxygenase; endogenous in cells; host or cells: RBL-1 (rat basophilic leukemia) cells, homogenate/microsomal fraction
Sequence (Q63921 27-602): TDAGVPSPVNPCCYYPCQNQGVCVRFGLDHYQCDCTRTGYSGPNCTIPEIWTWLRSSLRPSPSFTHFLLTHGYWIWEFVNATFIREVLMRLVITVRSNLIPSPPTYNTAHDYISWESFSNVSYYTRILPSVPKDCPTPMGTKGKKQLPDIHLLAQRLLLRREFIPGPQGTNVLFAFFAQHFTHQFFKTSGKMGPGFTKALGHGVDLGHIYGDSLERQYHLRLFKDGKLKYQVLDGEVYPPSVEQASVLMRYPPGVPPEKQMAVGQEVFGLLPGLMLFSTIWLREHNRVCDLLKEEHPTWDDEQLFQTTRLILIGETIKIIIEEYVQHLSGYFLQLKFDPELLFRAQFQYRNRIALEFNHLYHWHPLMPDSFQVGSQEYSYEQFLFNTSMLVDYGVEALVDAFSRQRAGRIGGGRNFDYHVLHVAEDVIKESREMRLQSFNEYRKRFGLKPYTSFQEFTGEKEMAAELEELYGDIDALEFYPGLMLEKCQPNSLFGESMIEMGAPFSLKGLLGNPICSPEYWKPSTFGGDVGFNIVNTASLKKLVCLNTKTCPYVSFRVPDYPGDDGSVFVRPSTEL
ASSAY TEXT: % inhibition of formation of cyclooxygenase product prostaglandin D2 (C1) in RBL-1 microsomal homogenate
Format: biochemical
TEST CONTEXT: 0.25 h; at 1 μM; line carries a superscript without letter (probably footnote a, 0.1 μM); read-out: % Inhibition in vitro, C1 (prostaglandin D2)
Where a name gives a salt, the structure may show the parent alone.
ASSAY READOUT: inhibition at 1 µM
Number plus unit, in that order.

N#CCCCCNc1ccc(O)cc1 [Example 1c, 5-[(4-Hydroxyphenyl)amino]pentanenitrile]    0%
CN(CCCCCCC#N)c1ccc(O)cc1 [Example 6c]    28%
Cc1cc(NCCCCCCC#N)ccc1O [Example 8c, monohydrochloride]    13%
N#CCCCCCCCNc1ccc(O)cc1.O=C(O)/C=C\C(=O)O [Example 4c]    0%

Kindly review the next molecule as well.
INPUT: Given the entry N#CCCCCCCNc1ccc(O)c(CO)c1 [Example 10c, monohydrochloride] , what inhibition at 1 µM was observed with cyclooxygenase derived from rat basophilic leukemia (RBL-1) cells (Rattus norvegicus)?
OUTPUT: 10%

====

TEST TARGET: lipoxygenase derived from rat basophilic leukemia (RBL-1) cells (Rattus norvegicus, UniProt P12527)
Construct: Single cell suspensions of RBL-1 cells are homogenized to obtain the microsomal fraction containing lipoxygenase and cyclooxygenase; endogenous in cells; host or cells: RBL-1 (rat basophilic leukemia) cells, homogenate/microsomal fraction
Sequence (P12527 whole entry): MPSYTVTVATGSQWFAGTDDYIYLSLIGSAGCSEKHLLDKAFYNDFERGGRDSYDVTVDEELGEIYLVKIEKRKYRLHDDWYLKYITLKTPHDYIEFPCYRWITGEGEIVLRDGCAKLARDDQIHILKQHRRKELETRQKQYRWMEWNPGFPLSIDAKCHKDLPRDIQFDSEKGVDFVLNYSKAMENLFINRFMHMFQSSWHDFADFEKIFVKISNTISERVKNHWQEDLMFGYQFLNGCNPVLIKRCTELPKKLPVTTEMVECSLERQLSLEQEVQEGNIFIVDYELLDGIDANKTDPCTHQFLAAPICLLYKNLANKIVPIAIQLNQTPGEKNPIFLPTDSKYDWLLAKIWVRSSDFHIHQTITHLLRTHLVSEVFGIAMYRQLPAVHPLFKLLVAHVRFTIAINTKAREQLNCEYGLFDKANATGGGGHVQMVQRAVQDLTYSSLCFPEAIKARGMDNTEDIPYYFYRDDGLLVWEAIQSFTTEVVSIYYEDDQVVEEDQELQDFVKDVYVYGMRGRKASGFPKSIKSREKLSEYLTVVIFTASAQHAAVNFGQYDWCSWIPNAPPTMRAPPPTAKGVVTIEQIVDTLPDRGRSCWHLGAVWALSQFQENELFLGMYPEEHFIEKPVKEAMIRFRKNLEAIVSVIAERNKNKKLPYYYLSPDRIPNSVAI
ASSAY TEXT: % inhibition of formation of lipoxygenase products 5,12-di-HETE (L1) and 5-HETE (L2) in RBL-1 microsomal homogenate
Assay type: biochemical
Set-up: dose or concentration left out as unconfirmed
TEST CONTEXT: read-out: % Inhibition in vitro, L2 (5-HETE)
Method: The primary screening test used is a determination of the inhibition of lipoxygenase and cyclooxygenase derived from rat basophilic leukemia (RBL-1) cells. The test was carried out according to the following procedure: Single cell suspensions of RBL-1 cells are homogenized to obtain the microsomal fraction containing lipoxygenase and cyclooxygenase. […] The peak areas of radioactivity representing the products are located by scanning the plates. […]
Where a name gives a salt, the structure may show the parent alone.
Provide the recorded inhibition for the entries that follow.
Give bare numbers, in %.

N#CCCCCCCNc1cc(Cl)c(O)c(Cl)c1 [Example 9c, monohydrochloride]    95
N#CCCCCCCCCNc1ccc(O)cc1.O=C(O)/C=C\C(=O)O    95
Cl.N#CCCCCCCNc1ccccc1O [Example 3c, monohydrochloride]    100
CC(=O)Oc1ccc(N(C)CCCCCCC#N)cc1    85
Cl.N#CCCCCCCNc1ccc(O)cc1F [Example 11c, monohydrochloride]    93

INPUT: Give its inhibition value. Item: Cc1cc(O)ccc1NCCCCCCC#N.Cl [Example 7c, monohydrochloride]
OUTPUT: 65
